# assay.protocol: Maximum tolerated dose after single oral administration
# condition.description: mouse, in vivo, mice, observed up to 72 hours
endpoint.name: MTD at 72 h (mg/kg)
Answer in mg/kg, number only, no unit symbol.

q: Consider the compound shown here: CCc1ccc(Cc2ccc3c(c2)[C@@H]2O[C@H](CO)[C@@H](O)[C@H](O)[C@H]2OC3=O)cc1 What is its recorded MTD at 72 h?
a: 1000

Where these numbers come from: patent EP2573088A1
